# target_entity: BRD4 (Homo sapiens (Human))
# measurement_description: Differential Scanning Fluorimetry (DSF), stability of BRD4 upon ligand binding
# condition_details: Table 1
quantity_name: DSF ΔTm (°C)

In the examples that follow, each entry is paired with its recorded DSF ΔTm.
Cc1cnc(Nc2ccc(N3CCN(C)CC3)c(F)c2)nc1Nc1cccc(NS(=O)(=O)C(C)(C)C)c1 [drawing 167]	11.2
CCCN(C)c1ccc(Nc2nc3c(c(Nc4cccc(S(N)(=O)=O)c4)n2)COC3)cc1	2.9

A. Cc1cnc(Nc2ccc(N3CCN(C)CC3)c(F)c2)nc1Nc1ccc(Cl)c(NS(=O)(=O)C(C)(C)C)c1 [drawing 168]
B. Cc1nc(Nc2ccc(N3CCN(C)CC3)cc2)nc(Nc2cccc(S(=O)(=O)NC(C)C)c2)c1C
Prompt line: Returns the identifier with the smallest measured DSF ΔTm among A and B . Give the label of your selection.
Response line: B
(B: 5.3 °C, A: 12.6 °C)

----------
# target_entity: BRD4-1 (Homo sapiens (Human))
quantity_name: IC50 (nM)
Supply the numeric figure in nM, leaving out any unit text.

Prompt line: Please respond with reported IC50 (system BRD4-1 (Homo sapiens (Human))) for Cc1cnc(Nc2ccc(N3CCN(C)CC3)cc2)nc1Nc1ccc(Cl)c(NS(=O)(=O)C(C)(C)C)c1 [drawing 232] .
Response line: 25

----------
# target_entity: BRDT-1 (Homo sapiens (Human), UniProt Q58F21)
quantity_name: pIC50
The read-out pIC50 is expressed as -log10 of concentration in moles per litre.

Prompt line: Look up and report measured pIC50 for this entry: Cc1cnc(Nc2ccc(C(=O)NC3CCN(C)CC3)c(F)c2)nc1Nc1ccc(Cl)c(NS(=O)(=O)C(C)(C)C)c1
Response line: 7.65

----------
List of IC50 values.
# Tested on: MM.1S cells
# measurement_description: Cellular IC50 (cell survival, MTT), MM.1S
# Type: cell-based
# condition_details: read-out: MM.1S IC50
Supply the numeric figure in nM, leaving out any unit text.

Cc1cnc(Nc2ccc(N3CCN(C)CC3)cc2)nc1Nc1ccc(Cl)c(NS(=O)(=O)C(C)(C)C)c1 [drawing 146]	142

Proceeding to the next compound to report its IC50.
Prompt line: Look up and report measured IC50 for this entry: Cc1cnc(Nc2ccc(N3CCN(C)CC3)c(F)c2)nc1Nc1cccc(NS(=O)(=O)C(C)(C)C)c1 [drawing 167]
Response line: 146

----------
# measurement_description: Solubility in PBS buffer
# Assay type: physicochemical
# condition_details: in 1 mL PBS buffer (15% HPCD)
quantity_name: Solubility

Prompt line: Look up and report measured Solubility for this entry: Cc1cnc(Nc2ccc(N3CCN(C)CC3)cc2)nc1Nc1ccc(Cl)c(NS(=O)(=O)C(C)(C)C)c1
Response line: > 14.4 mg/mL

----------
# target_entity: JAK2 (Homo sapiens (Human), UniProt O60674)
# Sequence (O60674 whole entry): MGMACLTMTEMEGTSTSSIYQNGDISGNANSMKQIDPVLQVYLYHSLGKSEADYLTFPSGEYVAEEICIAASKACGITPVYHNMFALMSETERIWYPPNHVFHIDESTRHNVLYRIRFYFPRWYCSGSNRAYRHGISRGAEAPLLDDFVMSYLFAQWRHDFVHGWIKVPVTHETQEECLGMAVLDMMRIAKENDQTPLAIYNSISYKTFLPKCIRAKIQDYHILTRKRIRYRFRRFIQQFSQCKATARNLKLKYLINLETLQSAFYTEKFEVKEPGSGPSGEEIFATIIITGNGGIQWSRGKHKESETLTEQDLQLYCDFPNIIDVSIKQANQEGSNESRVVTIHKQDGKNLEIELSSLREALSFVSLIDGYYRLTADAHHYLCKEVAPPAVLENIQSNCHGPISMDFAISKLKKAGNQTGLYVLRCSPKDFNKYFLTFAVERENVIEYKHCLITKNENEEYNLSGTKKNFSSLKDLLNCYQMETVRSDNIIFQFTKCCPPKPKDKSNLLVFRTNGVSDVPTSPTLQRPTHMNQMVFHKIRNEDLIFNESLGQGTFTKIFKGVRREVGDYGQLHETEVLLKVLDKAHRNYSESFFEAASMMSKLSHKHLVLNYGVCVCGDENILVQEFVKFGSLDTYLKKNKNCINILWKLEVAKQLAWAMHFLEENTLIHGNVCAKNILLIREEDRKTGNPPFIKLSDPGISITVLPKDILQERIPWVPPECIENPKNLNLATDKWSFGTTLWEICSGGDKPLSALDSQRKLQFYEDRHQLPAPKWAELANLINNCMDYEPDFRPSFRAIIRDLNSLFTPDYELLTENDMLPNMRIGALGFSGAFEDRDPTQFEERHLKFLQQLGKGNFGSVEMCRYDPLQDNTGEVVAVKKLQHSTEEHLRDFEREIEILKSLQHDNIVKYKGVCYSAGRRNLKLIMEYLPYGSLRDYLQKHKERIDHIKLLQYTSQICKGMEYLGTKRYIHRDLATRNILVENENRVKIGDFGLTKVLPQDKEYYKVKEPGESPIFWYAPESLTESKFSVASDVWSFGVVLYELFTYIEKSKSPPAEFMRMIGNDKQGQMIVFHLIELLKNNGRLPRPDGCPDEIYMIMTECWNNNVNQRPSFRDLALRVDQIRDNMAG
quantity_name: IC50 (nM)
Supply the numeric figure in nM, leaving out any unit text.

Prompt line: Please respond with reported IC50 (system JAK2 (Homo sapiens (Human), UniProt O60674)) for Cc1cnc(Nc2ccc(N3CCN(C)CC3)c(F)c2)nc1Nc1ccc(Cl)c(NS(=O)(=O)C(C)(C)C)c1 [drawing 230] .
Response line: 3.36

The measurements presented in this section are drawn from patent US11643396B2.
